Origin of measurements: patent US20220064312A1

Biological target: human CCR8 (human, UniProt P51685 1-355)
Sequence (P51685 whole entry): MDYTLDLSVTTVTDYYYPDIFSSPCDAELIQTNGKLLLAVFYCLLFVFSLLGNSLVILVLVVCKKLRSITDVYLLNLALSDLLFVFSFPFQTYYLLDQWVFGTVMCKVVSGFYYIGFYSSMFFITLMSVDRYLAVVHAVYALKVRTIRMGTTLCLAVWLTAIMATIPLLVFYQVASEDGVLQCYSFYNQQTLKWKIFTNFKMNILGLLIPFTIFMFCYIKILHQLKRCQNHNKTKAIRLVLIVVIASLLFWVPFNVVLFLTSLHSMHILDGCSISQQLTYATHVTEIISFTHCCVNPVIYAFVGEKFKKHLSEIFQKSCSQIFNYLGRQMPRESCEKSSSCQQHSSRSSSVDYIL
Assay: cell-based or functional assay
REPORTED_METRIC: IC50 (nM), Ca2+ influx by 200 nM hCCL1

Kindly note the recorded IC50 (nM), Ca2+ influx by 200 nM hCCL1 for h10A11 IGKV3-20 N53Q, G29R/IGHV3-15 T94R (antibody, V domains shown) VH: EVQLVESGGALVKPGGSLRLSCAASGFTFSTYALYWVRQAPGKGLEWVGRIRSKSNNYATYYADSVKDRFTISRDDSKNTLYLQMNSLKTEDTAVYYCTRARFYYSDYGYAMDYWGQGTLVTVSS VL: EIVLTQSPGTLSLSPGERATLSCRSSKSLLHSNRNTYLYWYQQKPGQAPRLLIYRMSQLASGIPDRFSGSGSGTDFTLTISRLEPEDFAVYYCMQHLEYPLTFGQGTKVEIKR , which is 0.19 nM
